- ASSAY TEXT: Stability of JAK3 Covalent Inhibitors in Human Whole Blood
- Type: in vitro ADME
- CONDITION NOTES: both sexes, 1 μM test compound, 37° C., 180 min incubation, read-out: Human blood stability t1/2
- From the text: Stability of JAK3 Covalent Inhibitors in Rat and Human Whole Blood Rat blood was collected from 3 male Sprague-Dawley rats (200-250 g, Charles River Laboratories) and pooled for each study. Human blood was collected from healthy subjects at the Occupational Health & Wellness Center at Pfizer, Groton, Conn. and pooled for each study. Both rat and human blood was collected freshly into K2-EDTA tubes and kept on ice. […]
METRIC NAME: half-life at 1 μM (h)

Below, each entry is followed by its recorded half-life at 1 μM result.
INPUT: Returns the measured half-life at 1 μM for the input compound. Input: C=CC(=O)N1CCC(N(C)c2cnc3[nH]cc(C(=O)NCC)c3n2)CC1 [Example 60]
OUTPUT: 2.97

INPUT: Returns the measured half-life at 1 μM for the input compound. Input: C=CC(=O)N1CCC(Nc2cnc3[nH]cc(C(=O)NCC(C)C)c3n2)C1 (stereo in doubt) [Example 256]
OUTPUT: 4.58

INPUT: Returns the measured half-life at 1 μM for the input compound. Input: C=CC(=O)N1CCC(Oc2cnc3[nH]cc(-c4ncn(C(C)C)n4)c3n2)CC1 [Example 124]
OUTPUT: 4.86

I. C=CC(=O)N1CCC[C@@H](Oc2cnc3[nH]cc(C(=O)N[C@@H](C)COC)c3n2)C1 [Example 49]
II. C=CC(=O)N1CCC(Oc2cnc3[nH]cc(C(=O)N[C@@H]4CCC[C@H]4F)c3n2)CC1 [Example 229]
INPUT: Compare the recorded half-life at 1 μM of I and II ; state which is larger. Which one? Tell me its label.
OUTPUT: II

----------
- ASSAY SYSTEM: JAK3 enzyme (Homo sapiens, UniProt P52333)
- ASSAY TEXT: JAK Caliper Enzyme Assay at 4 μM ATP
- Type: biochemical
pIC50: −log10 of the molar value.
METRIC NAME: pIC50

Below, each entry is followed by its recorded pIC50 result.
INPUT: Returns the measured pIC50 for the input compound. Input: C=CC(=O)N1CC[C@@H](Nc2cnc3[nH]cc(C(=O)NCC)c3n2)[C@H](C)C1 (racemic) [Example 43]
OUTPUT: 9.59

INPUT: Returns the measured pIC50 for the input compound. Input: C=CC(=O)N1CCC(Oc2cnc3[nH]cc(C(=O)NCC4CCC4)c3c2)CC1 [Example 345]
OUTPUT: 7.36

INPUT: Returns the measured pIC50 for the input compound. Input: C=CC(=O)N1C[C@@H](CC)[C@@H](Nc2cnc3[nH]cc(C(=O)NCC)c3n2)C1 [Example 263]
OUTPUT: 7.28

INPUT: Returns the measured pIC50 for the input compound. Input: C=CC(=O)N1CC[C@H](Nc2cnc3[nH]cc(C(=O)NCCC(F)(F)F)c3n2)C1 (single isomer, unassigned) [Example 255]
OUTPUT: 8.20

INPUT: Returns the measured pIC50 for the input compound. Input: C=CC(=O)N1CC[C@H](Oc2cnc3[nH]cc(C(=O)N[C@@H](C)COC)c3n2)C1 [Example 52]
OUTPUT: 8.99

INPUT: Returns the measured pIC50 for the input compound. Input: C=CC(=O)N1C[C@H](CC)[C@H](Nc2cnc3[nH]cc(C(=O)NCC)c3n2)C1 [Example 241]
OUTPUT: 8.42

A. C=CC(=O)N1CCC(Nc2cnc3[nH]cc(C(=O)NCc4nc5ccc(F)cc5o4)c3n2)CC1 [Example 194]
B. C=CC(=O)N1CCC(Oc2cnc3[nH]cc(C(=O)NC4CCCC4(F)F)c3n2)CC1 (centres unmarked) [Example 219]
INPUT: Compare the recorded pIC50 of A and B ; state which is larger. Which one? Tell me its label.
OUTPUT: B

----------
- ASSAY SYSTEM: JAK3 enzyme (Homo sapiens)
- Sequence (P52333 1-1124): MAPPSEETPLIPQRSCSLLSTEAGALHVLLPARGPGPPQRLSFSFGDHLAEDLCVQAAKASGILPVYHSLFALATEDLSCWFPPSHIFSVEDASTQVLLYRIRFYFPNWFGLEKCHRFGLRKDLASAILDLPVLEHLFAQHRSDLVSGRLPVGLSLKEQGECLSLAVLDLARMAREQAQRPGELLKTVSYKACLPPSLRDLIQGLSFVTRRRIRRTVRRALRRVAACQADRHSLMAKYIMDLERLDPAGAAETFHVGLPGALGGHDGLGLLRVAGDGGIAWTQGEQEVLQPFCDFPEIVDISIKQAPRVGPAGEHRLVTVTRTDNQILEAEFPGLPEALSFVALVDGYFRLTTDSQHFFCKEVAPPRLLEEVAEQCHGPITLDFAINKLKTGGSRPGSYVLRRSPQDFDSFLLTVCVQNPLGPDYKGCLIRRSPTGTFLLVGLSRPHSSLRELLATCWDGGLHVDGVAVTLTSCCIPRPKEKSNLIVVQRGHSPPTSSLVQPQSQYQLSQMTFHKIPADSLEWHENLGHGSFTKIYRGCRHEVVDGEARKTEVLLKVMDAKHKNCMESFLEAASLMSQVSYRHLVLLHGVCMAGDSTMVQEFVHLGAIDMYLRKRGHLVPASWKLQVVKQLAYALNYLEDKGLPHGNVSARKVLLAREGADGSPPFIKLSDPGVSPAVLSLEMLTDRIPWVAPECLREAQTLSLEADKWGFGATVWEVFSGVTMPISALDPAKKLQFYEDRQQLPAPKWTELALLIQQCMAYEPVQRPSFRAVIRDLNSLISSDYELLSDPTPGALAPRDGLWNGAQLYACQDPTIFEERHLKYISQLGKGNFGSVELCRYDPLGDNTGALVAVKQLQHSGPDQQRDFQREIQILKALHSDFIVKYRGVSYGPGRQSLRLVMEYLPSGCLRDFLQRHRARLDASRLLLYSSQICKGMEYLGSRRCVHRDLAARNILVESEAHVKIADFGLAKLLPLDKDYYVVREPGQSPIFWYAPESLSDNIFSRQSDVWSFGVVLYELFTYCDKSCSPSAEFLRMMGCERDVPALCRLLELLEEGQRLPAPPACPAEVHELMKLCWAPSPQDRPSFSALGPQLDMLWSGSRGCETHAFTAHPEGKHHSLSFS
- ASSAY TEXT: JAK Caliper Enzyme Assay at 4 μM ATP
- Assay type: biochemical
pIC50: −log10 of the molar value.
METRIC NAME: pIC50

Below, each entry is followed by its recorded pIC50 result.
INPUT: Returns the measured pIC50 for the input compound. Input: C=CC(=O)N1C[C@H](Nc2ncnc3[nH]ccc23)CC[C@@H]1[C@H](C)O (racemic)
OUTPUT: 8.99

INPUT: Returns the measured pIC50 for the input compound. Input: C=CC(=O)N1CCC[C@H](Nc2cnc3[nH]cc(C(=O)NCC)c3n2)C1 (single isomer, unassigned)
OUTPUT: 9.06

INPUT: Returns the measured pIC50 for the input compound. Input: `C=CC(=O)N(C)C1CN(c2cnc3[nH]cc(C(=O)NCCOC)c3n2)C1`
OUTPUT: 8.78

INPUT: Returns the measured pIC50 for the input compound. Input: `C=CC(=O)N1CCN(c2cnc3[nH]cc(C(=O)N[C@@H]4C[C@H]4C(F)(F)F)c3n2)C[C@@H]1CC(C)C`
OUTPUT: 8.32

INPUT: Returns the measured pIC50 for the input compound. Input: `C=CC(=O)N(C)C1CN(c2cnc3[nH]cc(C(=O)N[C@@H](C)COC)c3n2)C1`
OUTPUT: 8.54

INPUT: Returns the measured pIC50 for the input compound. Input: C=CC(=O)N1CC[C@H](COc2cnc3[nH]cc(C(=O)N[C@H](C)COC)c3n2)C1 (single isomer, unassigned)
OUTPUT: 7.50

INPUT: Returns the measured pIC50 for the input compound. Input: C=CC(=O)N1CCN(c2cnc3[nH]cc(C(=O)NC(C)COC)c3n2)CC1(C)C (racemic)
OUTPUT: 9.11

INPUT: Returns the measured pIC50 for the input compound. Input: `C=CC(=O)N1CCC(Oc2cnc3[nH]cc(C(=O)NCCC(F)(F)F)c3c2)CC1`
OUTPUT: 7.50

INPUT: Returns the measured pIC50 for the input compound. Input: C=CC(=O)N1CC[C@H](Nc2cnc3[nH]cc(C(=O)NCC)c3n2)C[C@@H]1C (racemic)
OUTPUT: 8.67

INPUT: Returns the measured pIC50 for the input compound. Input: C=CC(=O)N1CC[C@@H](Nc2cnc3[nH]cc(C(=O)N[C@@H](C)COC)c3n2)[C@@H](OC)C1 (single isomer, unassigned) [Example 355]
OUTPUT: 9.49

a. C=CC(=O)N1C[C@@H](Nc2cnc3[nH]cc(C(=O)N[C@H](C)COC)c3n2)CC[C@H]1C (single isomer, unassigned) [Example 70]
b. C=CC(=O)N1CC[C@H](Nc2cnc3[nH]cc(C(=O)N[C@@H]4C[C@H]4C(F)(F)F)c3n2)[C@H](OC)C1
INPUT: Compare the recorded pIC50 of a and b ; state which is larger. Which one? Tell me its label.
OUTPUT: b
(b: 9.17, a: 8.04)

P. C=CC(=O)N1CCC(Oc2cnc3[nH]cc(C#N)c3n2)CC1
Q. C=CC(=O)N1CCC(C)(Nc2cnc3[nH]cc(C(=O)NCC4CC(F)(F)C4)c3n2)CC1
INPUT: Could you determine which record has the numerically smaller pIC50? Candidates: P and Q Which one? Tell me its label.
OUTPUT: P
(P: 7.71, Q: 9.15)
